Field: # Sites in PHH (off-target integration sites detected). Provide a value for each of the molecules that follow.
# System: potential off-target genomic sites
# ASSAY_PROTOCOL: Off-target analysis by oligo insertion based assay in primary human hepatocytes (sgRNAs)
# Format: cell-based
# CONDITIONS_USED: 100 ng Cas9 mRNA, 25 nM sgRNA, 12.5 nM donor oligo, 48 h
Strand notation (5' to 3'): a small letter for the sugar, then the base; units joined by * are phosphorothioate-linked, units joined directly phosphodiester-linked; [ ] holds rarer units or linkages, { } end groups; capitals alone tell only the bases. m = 2'-O-methyl; r = 2'-OH (RNA)
Answer field: number only, no words.

Given the molecule G000501: TTR sgRNA modified sequence, Human, SEQ ID NO: 108; guide sequence of CR005300 (nucleic acid) guide: mU*mC*mA*rCrArGrArArArCrArCrUrCrArCrCrGrUrArGrUrUrUrUrArGrAmGmCmUmAmGmAmAmAmUmAmGmCrArArGrUrUrArArArArUrArArGrGrCrUrArGrUrCrCrGrUrUrArUrCrAmAmCmUmUmGmAmAmAmAmAmGmUmGmGmCmAmCmCmGmAmGmUmCmGmGmUmGmCmU*mU*mU*mU , what is its reported # Sites in PHH (off-target integration sites detected)? 0

And the next one, G000571: TTR sgRNA modified sequence, Human, SEQ ID NO: 112; guide sequence of CR005301 (nucleic acid) guide: mG*mU*mC*rArCrArGrArArArCrArCrUrCrArCrCrGrUrGrUrUrUrUrArGrAmGmCmUmAmGmAmAmAmUmAmGmCrArArGrUrUrArArArArUrArArGrGrCrUrArGrUrCrCrGrUrUrArUrCrAmAmCmUmUmGmAmAmAmAmAmGmUmGmGmCmAmCmCmGmAmGmUmCmGmGmUmGmCmU*mU*mU*mU ? 1

And the next one, G000498: TTR sgRNA modified sequence, Human, SEQ ID NO: 105; guide sequence of CR003359 (nucleic acid) guide: mA*mG*mU*rGrArGrUrCrUrGrGrArGrArGrCrUrGrCrArGrUrUrUrUrArGrAmGmCmUmAmGmAmAmAmUmAmGmCrArArGrUrUrArArArArUrArArGrGrCrUrArGrUrCrCrGrUrUrArUrCrAmAmCmUmUmGmAmAmAmAmAmGmUmGmGmCmAmCmCmGmAmGmUmCmGmGmUmGmCmU*mU*mU*mU ? 19

The values you see were collected from patent US20230035659A1.
